# System: Plasmodium berghei
# Assay Remarks: Screen against P. berghei liver stage (PbLuc), transformed with Luciferase, at 2uM
# Type: functional, HepG2
# Assay Setup: tested at 2 uM
Among all 68,000 compounds or so, about 2,700 (4%) showed an effect of 50% or more. The entries come from a sample that favours strong results as a whole.
Metric: INHIBITION (%)
Response body: numeric value in %, unit text excluded.

Some compounds with recorded INHIBITION:
NC(=O)c1nc(CN2CCOC(C(F)(F)F)C2)no1 (stereo unspecified)	43.91
O=C(NCc1ccccn1)C1CN(c2nc3ccccc3s2)CCN1 (stereo unspecified)	56.21
Cn1cc(CN2CCC(F)(F)C3(CCN(c4ncccn4)C3)C2)cn1 (stereo unspecified)	11.54
Cc1cccc(CN2CCC(C3Nc4ccccc4S(=O)(=O)N3)CC2)n1 (stereo unspecified)	7.38
CCOC(=O)[C@@H]1[C@@H](c2ccccc2)CN2CCN(C(C)=O)C[C@H]12	40.13

API: the following record is the query input.
compound CNC(=O)c1nc(CN2CCOC(C(F)(F)F)C2)no1 (stereo unspecified) , INHIBITION observed: 65.76
